Cited source for all entries: ChEMBL document CHEMBL1201862

- Tested on: CAKI-1
- protocol-notes: NCI tumour cell line growth inhibition, 48 h
Active and inactive are the calls of the source. Rule as the data show it: active = GI50 up to about 1.1 µM and inactive = higher.
metric-name: GI50

Respond only with GI50 recorded for CCOC(=O)c1cc2c(ccc3cc(C(=O)OCC)[nH]c32)[nH]1
29 µM (inactive)

Respond only with GI50 recorded for COc1cc(/C=C/C(=O)O)ccc1O [FERULATE]
> 100 µM (inactive)

Respond only with GI50 recorded for CN(/N=C/c1ccc(OCc2cccc(COc3ccc(C=O)cc3)n2)cc1)c1cnn(-c2ccc(Cl)cc2Cl)c(=O)c1Cl
> 100 µM (inactive)

Respond only with GI50 recorded for CC(=O)Oc1ccc(N2C(=O)C3c4[nH]c5ccccc5c4C4CCC(C(C)(C)C)CC4C3C2=O)cc1 (stereo not given)
5.31 µM (inactive)

Respond only with GI50 recorded for Cc1ccc2nc(SCC(=O)N/N=C3\C(=O)Nc4ccccc43)n(-c3ccccc3)c(=O)c2c1
18.6 µM (inactive)

----------
- Test system: SK-MEL-5
- protocol-notes: NCI tumour cell line growth inhibition, 48 h
Activity calls are given as the source filed them. No stated cut-off is given here; in the data, active = GI50 up to about 1.1 µM and inactive = higher.
metric-name: GI50

Respond only with GI50 recorded for Cc1cc(C)c2c(c1)N[S@@](=O)S2
29.9 µM (inactive)

Respond only with GI50 recorded for CCOC(=O)c1c(N)n(-c2ccccc2)c(=S)n(-c2ccccc2)c1=O
> 100 µM (inactive)

Respond only with GI50 recorded for CC(C)NC(=O)OCc1c(COC(=O)NC(C)C)n(C)c2c1ccc1sccc12
9.29 µM (inactive)

Respond only with GI50 recorded for CC1=C[C@@H]2Cc3nc4cc(Cl)ccc4c(N)c3[C@H](C1)C2
2.84 µM (inactive)

----------
- Test system: UO-31
- protocol-notes: NCI tumour cell line growth inhibition, 48 h
Calls of active or inactive are those of the source. Rule as the data show it: active = GI50 up to about 1.1 µM and inactive = higher.
Entry note: the call must match one of yes (1) for active, no (0) for inactive

Please share the test call associated with Brc1ccc2c(C3CN[C@@H](c4c[nH]c5cc(Br)ccc45)CN3)c[nH]c2c1 (stereo partly drawn) .
no (0)

Please share the test call associated with COc1cc(/C=C(\C#N)c2ccccc2)cc(OC)c1 .
no (0)

Please share the test call associated with COc1ccc(N(C)S(=O)(=O)c2ccccc2)cc1 .
no (0)

Please share the test call associated with COc1ccc(C(C)NNC(=O)c2ccncc2)cc1F (stereo not drawn) .
no (0)

Please share the test call associated with CC1(C)CC(=O)C(/C(=N/NC(=S)NN)C(=O)Nc2nc3ccc([N+](=O)[O-])cc3s2)C(=O)C1 .
no (0)

Please share the test call associated with CS/C(c1ccccc1)=[N+](/C)[O-] .
no (0)

Please share the test call associated with N=C(N)NS(=O)(=O)c1ccc(NC(=O)c2cccc3c(O)c4ccccc4nc23)cc1 .
no (0)

Please share the test call associated with CN(C)c1cccc2c1C(=O)C=CC21c2ccc(N(C)C)c3c(N(C)C)ccc(c23)C(c2ccccc2)C1c1ccccc1 (stereo not drawn) .
no (0)

Please share the test call associated with O=C(Nc1cccc(C(F)(F)F)c1)c1cc(-c2ccccc2)nc(S)n1 .
no (0)

Please share the test call associated with CC(C)(C)OC(=O)Cn1ncn(NC(=O)Cc2ccccc2)c1=O .
no (0)

Please share the test call associated with CCOc1cc(NC(C)=O)ccc1C(=O)NN1C(=O)/C(=C/c2cc(OC)c(OC)c(OC)c2)N=C1c1ccccc1 .
no (0)

Please share the test call associated with Nc1ncnc2c1ccn2COC(CO)CO .
no (0)

Please share the test call associated with O=[N+]([O-])c1cccc2nc3ccccc3c(NCCCNc3c4ccccc4nc4cccc([N+](=O)[O-])c34)c12 .
yes (1)

Please share the test call associated with N#C/C(N)=C(\C#N)NC(=O)C(=O)N/C(C#N)=C(\N)C#N .
no (0)

Please share the test call associated with CC1=C[C@@H]2Cc3nc4cc(Cl)ccc4c(N)c3[C@H](C1)C2 .
no (0)

Please share the test call associated with COC(=O)c1s/c(=N\C(=S)N(C)C)n(-c2ccc(Cl)cc2)c1C(=O)OC .
no (0)

Please share the test call associated with COC1(OC)CC(CO)(CNc2cc(Cl)nc(N)n2)C1 .
no (0)

Please share the test call associated with O=C1Nc2c(Cl)cc(Cl)cc2/C1=N/NC(=O)c1ccncc1 .
no (0)

Please share the test call associated with Cc1c([C@H](C)[C@@H]2NC[C@@H](C)C[C@H]2O)ccc2c1C[C@H]1[C@H]2CC=C2C[C@@H](O)CC[C@@]21C .
no (0)

Please share the test call associated with NC(CNc1ccc(O)cc1)C(=O)O (stereo not drawn) .
no (0)

Please share the test call associated with CC(=O)OC12c3ccccc3C1CCCC21OCCCO1 (stereo not drawn) .
no (0)

Please share the test call associated with COc1ccc(N2C(=O)/C(=C\c3ccccc3)SC2c2cc(OC)c(OC)c(OC)c2)cc1 (stereo not drawn) .
no (0)

Please share the test call associated with CC(=O)N/C=C/c1cc(O)ccc1O .
no (0)

Please share the test call associated with N#C/C(C(=O)Nc1ccc(Cl)cc1)=C(/N)N1CCCC1 .
no (0)

Please share the test call associated with CCN1CC2=C(NC(=S)NC2c2cc(OC)c(OC)c(OC)c2)/C(=C/c2cc(OC)c(OC)c(OC)c2)C1 (stereo not drawn) .
no (0)

Please share the test call associated with c1cc2nnnn2nc1N1CCCC1 .
no (0)

Please share the test call associated with COC1CC(OC2C(C)OC(OC3C(C)OC(OC4C(O)CC(O[C@H]5CC[C@@]6(C)C(=CC[C@]7(O)[C@@H]6C[C@@H](OC(=O)/C=C/c6ccccc6)[C@@]6(C)[C@]7(O)CC[C@@]6(O)C(C)=O)C5)OC4C)CC3OC)CC2OC)OC(C)C1O (stereo partly drawn) .
no (0)

Please share the test call associated with CC(C)NC(=O)OCc1c(COC(=O)NC(C)C)n(C)c2c1ccc1sccc12 .
no (0)

----------
For each entry below, report its GI50 value.
- System: MDA-MB-231
- protocol-notes: NCI tumour cell line growth inhibition, 48 h
Active and inactive are the calls of the source. Cut-off read from the data, not from the text of the source: active = GI50 up to about 1.1 µM and inactive = higher.

Respond only with GI50 recorded for O=C1Nc2ccc(Br)cc2/C1=N/NC(=S)Nc1ccc(F)cc1
12.6 µM (inactive)

Respond only with GI50 recorded for Cc1cc(S(=O)(=O)[N-]/C(=N/S(=O)(=O)c2ccc(Cl)cc2)[n+]2ccc(N(C)C)cc2)c(S)cc1Cl
> 100 µM (inactive)

Respond only with GI50 recorded for COC1OC2COC(=O)c3cc(O)c(O)c(O)c3-c3c(cc(O)c(O)c3O)C(=O)OC2C(O)C1O (stereo not given)
> 100 µM (inactive)

Respond only with GI50 recorded for C/C(=N\NC(=S)Nc1ccc(C)cc1)c1nc2cccnc2[nH]1
1.17 µM (inactive)

Respond only with GI50 recorded for COc1cc(C[C@@]2(C)[C@@H]3CCC[C@H](CO)[C@@]3(C)CC[C@@H]2C)c(Cl)c(OC)c1
16.4 µM (inactive)

Respond only with GI50 recorded for O=C(O)c1ccc(NNC(=O)c2cccc3c(=O)c4ccccc4[nH]c23)cc1
75.3 µM (inactive)

Respond only with GI50 recorded for c1cc2nnnn2nc1N1CCCC1
> 100 µM (inactive)

Respond only with GI50 recorded for C/C=C1/CN2CCC34c5ccccc5N5C(=O)C(C6CC78c9ccccc9N9C(=O)C=CC(C%10CC7N6C/C%10=C/C)C98)=CC(C1CC23)C54 (stereo not given)
2.32 µM (inactive)

Respond only with GI50 recorded for O=C1c2ccccc2C(=O)N1c1ccc(Cc2ccc(N3C(=O)c4ccccc4C3=O)cc2)cc1
> 100 µM (inactive)

Respond only with GI50 recorded for COc1ccc(/N=N\c2c(N)nn3c(SC)c(C#N)c(N)nc23)cc1
2.32 µM (inactive)

Respond only with GI50 recorded for NC(=O)/C=C/NC(=O)/C=N\O
> 100 µM (inactive)

Respond only with GI50 recorded for Cc1nc(=O)c2cc(CN(C)c3ccc(C(=O)N[C@@H](CCC(=O)O)C(=O)O)s3)ccc2[nH]1 [RALTITREXED]
> 100 µM (inactive)

Respond only with GI50 recorded for CC(=O)OCC1OC(On2ccccc2=S)C(OC(C)=O)C(OC(C)=O)C1OC(C)=O (stereo not given)
> 100 µM (inactive)

Respond only with GI50 recorded for COc1ccc(C2SCC(=O)N2NC(=O)c2ccc(NC(C)=O)cc2)c(OC)c1 (stereo not given)
> 100 µM (inactive)

Respond only with GI50 recorded for CC(=O)O[C@H]1CC[C@@]2(C)C(=CC[C@H]3[C@@H]4C/C(=C\c5ccncc5)[C@H](OC(C)=O)[C@@]4(C)CC[C@@H]32)C1
19.1 µM (inactive)

----------
- Test system: U-251
- protocol-notes: NCI tumour cell line growth inhibition, 48 h
The source made the active and inactive calls. Cut-off read from the data, not from the text of the source: active = GI50 up to about 1.1 µM and inactive = higher.
metric-name: GI50

Respond only with GI50 recorded for CN(C)c1cccc2c1C(=O)C=CC21c2ccc(N(C)C)c3c(N(C)C)ccc(c23)C(c2ccccc2)C1c1ccccc1 (centres undefined)
10.5 µM (inactive)

Respond only with GI50 recorded for CC(=O)c1cnc2oc3ccc(O)cc3c2c1-c1ccccc1
52.4 µM (inactive)

Respond only with GI50 recorded for N#CC(C(=O)C(=O)Nc1ccc(Cl)cc1)c1ccccc1 (centres undefined)
> 100 µM (inactive)

Respond only with GI50 recorded for COC(=O)C1=C(C)NC(C)=C(C(=O)OC)C1c1cccc(/[N+]([O-])=C/c2ccccc2)c1
> 100 µM (inactive)

Respond only with GI50 recorded for C[Si](C)(C)/C(Br)=C\CCN1C(=O)CCC1O (centres undefined)
> 100 µM (inactive)

Respond only with GI50 recorded for COC(=O)c1s/c(=N\C(=S)N(C)C)n(-c2ccc(Cl)cc2)c1C(=O)OC
> 100 µM (inactive)

Respond only with GI50 recorded for CCc1cc2c(c3c1CCCC3)CC1(Cc3ccc(C(=O)OC)cc3C1)C2 (centres undefined)
86.1 µM (inactive)

Respond only with GI50 recorded for CCCCN1C(=O)CS/C1=N/Nc1nc2c([nH]1)c(=O)n(C)c(=O)n2C
15 µM (inactive)

Respond only with GI50 recorded for N[C@@H]1c2c(Br)sc(Br)c2[C@H](O)[C@@H]1O
> 100 µM (inactive)

Respond only with GI50 recorded for CN(C)CC1CCCCCC(Br)C1=O (centres undefined)
19.6 µM (inactive)

Respond only with GI50 recorded for CC1C=CC(O)[C@]2(CO)CC3(CCC12)OCCO3 (some centres undefined)
> 100 µM (inactive)

Respond only with GI50 recorded for COc1cc(/C=C(\C#N)c2ccccc2)cc(OC)c1
28.3 µM (inactive)

Respond only with GI50 recorded for O/N=C1\CCCCC1C(NO)c1ccccc1 (centres undefined)
> 100 µM (inactive)

Respond only with GI50 recorded for NC12CC3CC(C1)CC(Cl)(C3)C2
> 100 µM (inactive)

Respond only with GI50 recorded for CN(/N=C/c1cccc2cccnc12)c1ccccc1
> 100 µM (inactive)

Respond only with GI50 recorded for CC(C)Oc1c(O)c2c3c(oc(=O)n3C=CC2c2ccccc2)c1OC(C)C (centres undefined)
20.8 µM (inactive)

Respond only with GI50 recorded for Cc1c2ccccc2cc2ccc3oc([N+](=O)[O-])cc3c12
> 100 µM (inactive)

Respond only with GI50 recorded for Cc1cc(C)nc(NC(=S)Nc2ccc(Cl)cc2)c1
35.9 µM (inactive)

Respond only with GI50 recorded for CC(=O)/C=C1/C(=O)C(CC(C)C)=C1CC(C)C
> 100 µM (inactive)

Respond only with GI50 recorded for O=C1Nc2ccc(Br)cc2/C1=N/NC(=S)Nc1ccc(F)cc1
3.53 µM (inactive)

Respond only with GI50 recorded for COC(=O)c1ccc2c(c1)CC1(C2)Cc2ccc3c(c2C1)CCC3 (centres undefined)
28.7 µM (inactive)

Respond only with GI50 recorded for O=C(c1ccccc1)c1c(C(F)(F)F)[n+]([O-])c2cc(Cl)c(Cl)cc2[n+]1[O-]
1.23 µM (inactive)

Respond only with GI50 recorded for O=S1OC(c2ccccc2)(c2ccccc2)C(c2ccccc2)(c2ccccc2)O1
25.1 µM (inactive)

Respond only with GI50 recorded for NC(=O)/C=C/NC(=O)/C=N\O
> 100 µM (inactive)
